// provenance: ChEMBL document CHEMBL5724801

- Test system: HEK-293T
- test: Multiplex assay against HEK293T
- Type: toxicity, cell-based
- condition_info: human, 12 h, 10 µM, compound concentration 10 uM
Listing of entries alongside the reported Population Mitotic Cells (%).

Some entries whose results are on file:
compound: CSCC[C@H](NC=O)C(=O)N[C@@H](CC(C)C)C(=O)N[C@@H](Cc1ccccc1)C(=O)O
Population Mitotic Cells (%): 45%

compound: N[C@](CC1c2ccccc2Oc2ccccc21)(C(=O)O)[C@H]1C[C@@H]1C(=O)O
Population Mitotic Cells (%): 67%

compound: CSc1ccccc1N1CCN(CCCCCC(=O)NC2CCCc3ccccc32)CC1.Cl (stereo unspecified)
Population Mitotic Cells (%): 20%

compound: Cc1cc(O)c(-c2ccc([C@@H](C)CN(C)C)cc2)c2c1[nH]c(=O)c1sccc12
Population Mitotic Cells (%): 62.79% [middle of 4 runs]

compound: CCC(=O)N1CCN(c2ccc(-n3c(=O)ccc4cnc5ccc(-c6cnc7ccccc7c6)cc5c43)cc2C(F)(F)F)CC1 [TORIN1]
Population Mitotic Cells (%): 48%

Query compound follows.
input: What does the record list as Population Mitotic Cells (%) for `COc1cc(C(=O)N2CC[C@@H](O)[C@@H](N)C2)cc2nc(-c3cc4ccccc4n3CC3CC3)n(C)c12.Cl` ?
output: 28%

###

- Test system: HEK-293T
- test: Multiplex assay against HEK293T
- Format: toxicity, cell-based
- condition_info: human, 48 h, 10 µM, compound concentration 10 uM
observation_type: Population Fragmented Nuclei (%)
Unit % implied. Number only.

Some entries whose results are on file:
molecule: N#Cc1cc(F)cc(-c2nc(-c3ccc(F)cn3)no2)c1
Population Fragmented Nuclei (%): 16

molecule: COc1cc(C(=O)N2CC[C@@H](O)[C@@H](N)C2)cc2nc(-c3cc4ccccc4n3CC3CC3)n(C)c12.Cl
Population Fragmented Nuclei (%): 13

molecule: CN[C@@H](C)C(=O)N[C@H](C(=O)N1CCC[C@H]1C(=O)Nc1snnc1-c1ccccc1)C1CCCCC1
Population Fragmented Nuclei (%): 12

molecule: CCCCC(=O)N(Cc1ccc(-c2ccccc2-c2nnn[nH]2)cc1)[C@H](C(=O)O)C(C)C
Population Fragmented Nuclei (%): 14

molecule: COCCCN1CCC(NC(=O)c2cc(Cl)c(N)c3c2OCC3)CC1 [PRUCALOPRIDE]
Population Fragmented Nuclei (%): 16

Query molecule follows.
input: What does the record list as Population Fragmented Nuclei (%) for `N[C@](CC1c2ccccc2Oc2ccccc21)(C(=O)O)[C@H]1C[C@@H]1C(=O)O` ?
output: 13

###

- System: HEK-293T
- test: Multiplex assay against HEK293T
- Format: toxicity, cell-based
- condition_info: human, 12 h, 1 µM, compound concentration 1 uM
Listing of entries alongside the reported Population Membrane Permeable-Phenotype (%).
Unit % implied. Number only.

Some entries whose results are on file:
compound: COc1ccc2c(c1)C(C(=O)N(Cc1ccc(N(C)C)cc1)c1ccc(C(C)C)cc1)CCC2.Cl (stereo not given)
experimental_result: 0

compound: Cc1noc(-c2ccc(-c3ccc(CC(=O)O)cc3)cc2)c1NC(=O)O[C@H](C)c1ccccc1Cl
experimental_result: 0

compound: CNC[C@H](O)c1ccc(O)c(O)c1 [EPINEPHRINE]
experimental_result: 0

compound: CCn1c(-c2nc3cc(C(=O)N4CCCC(N)C4)ccc3n2C)cc2ccccc21.Cl (stereo not given)
experimental_result: 0

input: What does the record list as Population Membrane Permeable-Phenotype (%) for CSc1nc(NC2CCCC2)c([N+](=O)[O-])c(NC2CCCC2)n1 [GS-39783] ?
output: 0

###

- Test system: HEK-293T
- test: Multiplex assay against HEK293T
- Assay type: toxicity, cell-based
- condition_info: human, 12 h, 1 µM, compound concentration 1 uM
observation_type: Population Normal (%)
Unit % implied. Number only.

Some entries whose results are on file:
structure_smiles_string: c1ccc2nc(N3CCNCC3)ccc2c1
Population Normal (%): 100
//
structure_smiles_string: CC[C@H](Nc1ncnc2[nH]cnc12)c1nc2cccc(F)c2c(=O)n1-c1ccccc1
Population Normal (%): 100
//
structure_smiles_string: C=C(C)[C@H]1CN[C@H](C(=O)O)[C@H]1CC(=O)O
Population Normal (%): 100

Query compound follows.
input: What does the record list as Population Normal (%) for `CC(C)(C)c1ccc(S(=O)(=O)Nc2ccc(Cl)cc2C(=O)c2cc[n+]([O-])cc2)cc1` ?
output: 92

###

Listing of entries alongside the reported Population Tubulin-Different-Phenotype (%).
- System: U2OS
- test: Multiplex assay against U2OS
- Type: toxicity, cell-based
- condition_info: human, 24 h, 10 µM, compound concentration 10 uM
Unit % implied. Number only.

compound: Cc1ccc(C(C)(O)c2nc3ccccc3s2)c(C)c1 (stereo not given)
units_symbol: %
experimental_result: 3
--
compound: Cl.NCCc1ccc(O)c(O)c1 [DOPAMINE HYDROCHLORIDE]
units_symbol: %
experimental_result: 1

input: What does the record list as Population Tubulin-Different-Phenotype (%) for `C[C@@H]1C[C@H]2[C@@H]3CCC4=CC(=O)C=C[C@]4(C)[C@@]3(F)[C@@H](O)C[C@]2(C)[C@@]1(O)C(=O)CO` ?
output: 2

###

- Test system: Fibroblast
- test: Multiplex assay against human fibroblast
- Format: toxicity, cell-based
- condition_info: 12 h, 10 µM, compound concentration 10 uM
Listing of entries alongside the reported Population Normal (%).

Some entries whose results are on file:
compound: C=C(C)[C@H]1CN[C@H](C(=O)O)[C@H]1CC(=O)O
Population Normal (%): 100%
--
compound: CSCC[C@H](NC=O)C(=O)N[C@@H](CC(C)C)C(=O)N[C@@H](Cc1ccccc1)C(=O)O
Population Normal (%): 61%
--
compound: O=C1N=C(NCc2cccs2)S/C1=C\c1ccc2ncccc2c1
Population Normal (%): 100%
--
compound: CC[C@H](Nc1ncnc2[nH]cnc12)c1nc2cccc(F)c2c(=O)n1-c1ccccc1
Population Normal (%): 100%

input: What does the record list as Population Normal (%) for `CC(C)c1ccc(/C=N/NC(=O)c2ccc(O)cc2)cc1` ?
output: 100%

input: What does the record list as Population Normal (%) for `S=c1[nH]nc(-c2cccs2)n1-c1ccccc1` ?
output: 100%

input: What does the record list as Population Normal (%) for `CC/C(=C(\c1ccc(O)cc1)c1ccc(OCCN(C)C)cc1)c1ccccc1` ?
output: 100%

input: What does the record list as Population Normal (%) for `CCCCCCNC(=O)Nc1ccc(S(=O)(=O)Nc2ccc(CCNC[C@H](O)COc3ccc(O)cc3)cc2)cc1` ?
output: 94%

input: What does the record list as Population Normal (%) for CSc1ccccc1N1CCN(CCCCCC(=O)NC2CCCc3ccccc32)CC1.Cl (centres undefined) ?
output: 94%

input: What does the record list as Population Normal (%) for `Cn1cnc(-c2cnc(O[C@H]3CCN(C(=O)Cc4ccc(OC(F)(F)F)cc4)C[C@H]3F)c(C(N)=O)c2)c1` ?
output: 100%

###

- System: HEK-293T
- test: Multiplex assay against HEK293T
- Format: toxicity, cell-based
- condition_info: human, 24 h, 1 µM, compound concentration 1 uM
observation_type: Population Normal (%)
Unit % implied. Number only.

compound: Cc1ccc(C(C)(O)c2nc3ccccc3s2)c(C)c1 (centres undefined)
Population Normal (%): 96

Query compound follows.
input: What does the record list as Population Normal (%) for `CC(C)c1ccc(/C=N/NC(=O)c2ccc(O)cc2)cc1` ?
output: 100

###

Listing of entries alongside the reported Population Normal (%).
- System: U2OS
- test: Multiplex assay against U2OS
- Format: toxicity, cell-based
- condition_info: human, 12 h, 1 µM, compound concentration 1 uM
Write down the value, and be sure its unit follows.

Some entries whose results are on file:
compound: N[C@](CC1c2ccccc2Oc2ccccc21)(C(=O)O)[C@H]1C[C@@H]1C(=O)O
Population Normal (%): 98%

compound: CC(C)c1ccc(/C=N/NC(=O)c2ccc(O)cc2)cc1
Population Normal (%): 100%

compound: O=C(Nc1ccccc1Cl)c1cnc2ccc(C3CCNCC3)cn12.O=C(O)C(=O)O
Population Normal (%): 100%

compound: CC/C(=C(\c1ccc(O)cc1)c1ccc(OCCN(C)C)cc1)c1ccccc1 [AFIMOXIFENE]
Population Normal (%): 100%

compound: C[C@@H]1CC(=O)Nc2cccc(-c3ccc4c(c3)c(-c3cnn(C)c3)nn4C)c2N1
Population Normal (%): 98%

compound: COc1c(C)cc(NC(=O)c2nn(Cc3ccc(F)cc3)c3c2CN(C(=O)c2ccc[nH]2)C[C@]3(C)C(N)=O)cc1C
Population Normal (%): 97%

compound: O=C1NCc2ccc3c(-c4cccc(Cl)c4)c[nH]c3c21
Population Normal (%): 100%

compound: C=C(C)[C@H]1CN[C@H](C(=O)O)[C@H]1CC(=O)O [KAINIC ACID]
Population Normal (%): 100%

input: What does the record list as Population Normal (%) for `Cl.Cl.N#Cc1ccc(O[C@@H]2c3ccccc3C[C@H]2N2CCC[C@@H](N)C2)c(Cl)c1` ?
output: 100%

input: What does the record list as Population Normal (%) for `CC(C)Oc1ccc(F)c(-c2cnc(N)c(C(=O)Nc3cnccc3N3CCC[C@@H](C(=O)O)C3)n2)c1` ?
output: 100%

input: What does the record list as Population Normal (%) for `S=c1[nH]nc(-c2cccs2)n1-c1ccccc1` ?
output: 100%

input: What does the record list as Population Normal (%) for `COc1cc2ncnc(Nc3ccc(Oc4ccccc4)cc3C)c2cc1OC.Cl` ?
output: 100%

input: What does the record list as Population Normal (%) for `Cn1cnc(-c2cnc(O[C@H]3CCN(C(=O)Cc4ccc(OC(F)(F)F)cc4)C[C@H]3F)c(C(N)=O)c2)c1` ?
output: 100%
